Listed binders paired with reported Kd
Assay System: T1, human C1s (human, UniProt P09871 16-688)
T1 construct: Analyte in the Biacore assays; also called hC1s; serum-derived human C1s (CompTech)
T1 sequence: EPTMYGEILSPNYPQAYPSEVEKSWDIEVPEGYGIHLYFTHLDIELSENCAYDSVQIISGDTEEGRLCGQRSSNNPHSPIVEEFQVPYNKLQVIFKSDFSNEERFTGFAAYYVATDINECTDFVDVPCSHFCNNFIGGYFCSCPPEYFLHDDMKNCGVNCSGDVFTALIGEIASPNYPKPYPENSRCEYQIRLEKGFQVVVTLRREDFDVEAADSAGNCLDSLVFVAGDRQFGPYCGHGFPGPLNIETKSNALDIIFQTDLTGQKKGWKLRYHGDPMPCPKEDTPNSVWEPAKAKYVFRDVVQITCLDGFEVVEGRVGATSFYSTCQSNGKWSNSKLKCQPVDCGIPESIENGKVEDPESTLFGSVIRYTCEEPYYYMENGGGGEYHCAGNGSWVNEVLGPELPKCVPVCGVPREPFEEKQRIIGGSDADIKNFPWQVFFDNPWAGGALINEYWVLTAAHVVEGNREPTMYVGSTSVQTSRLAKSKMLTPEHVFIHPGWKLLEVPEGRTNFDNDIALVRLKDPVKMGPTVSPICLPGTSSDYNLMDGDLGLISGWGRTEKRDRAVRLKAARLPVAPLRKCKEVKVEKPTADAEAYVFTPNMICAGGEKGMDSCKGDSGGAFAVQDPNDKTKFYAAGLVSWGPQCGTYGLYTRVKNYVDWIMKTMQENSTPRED
Assay Summary: SPR (Biacore T200, 37C), Ab captured on protein A/G; pH 5.8, 1.2 mM Ca
Reply with the number and its unit after it.

Before answering, review these 2 worked examples.
{"columns": ["Binder", "Kd"],
 "data": [
  ["C1_IPN92H0061-SG4GK/IPN93L0024-SK1 (antibody, human IgG4 S228P, kappa, name in Kabat numbering, V domains shown, Substitutions from IPN009VH2, Kabat numbering; also called IPN92H0061/IPN93L0024) VH: EVMLVESGGGLVKPGGSLRLSCAASGFTKSNYAMSWVRQAPGKGLEWVATISSGGSHTYYLDSVKGRFTISRDNSKDTLYLQMNSLRAEDTALYYCARLFTGHAMDYWGQGTLVTVSS VL: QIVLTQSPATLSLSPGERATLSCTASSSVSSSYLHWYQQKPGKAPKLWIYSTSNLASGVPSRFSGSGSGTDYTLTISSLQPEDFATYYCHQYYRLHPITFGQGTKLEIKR", "11.9 nM"],
  ["C1_IPN92H0193-SG4GK/IPN93L0024-SK1 (antibody, human IgG4 S228P, kappa, name in Kabat numbering, V domains shown, Substitutions from IPN009VH2, Kabat numbering; also called IPN92H0193/IPN93L0024) VH: EVMLVESGGGLVKPGGSLRLSCAASGFTFSNYAMSWVRQAPGKGLEWVATISSGGSHTYYLDSVKDRFTISRDNSKDTLYLQMNSLRAEDTALYYCARLFTGHAMDYWGQGTLVTVSS VL: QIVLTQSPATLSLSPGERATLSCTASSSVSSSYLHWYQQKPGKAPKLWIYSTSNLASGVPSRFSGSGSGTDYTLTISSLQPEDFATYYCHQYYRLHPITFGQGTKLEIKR", "5.74 nM"]
]}

Next binder, please.
In plain terms, C1_IPN92H0282-SG4GK/IPN93L0024-SK1 (antibody, human IgG4 S228P, kappa, name in Kabat numbering, V domains shown, Substitutions from IPN009VH2, Kabat numbering; also called IPN92H0282/IPN93L0024) VH: EVMLVESGGGLVKPGGSLRLSCAASGFTFSNYAMSWVRQAPGKGLEWVATISSGGSHTYELDSVDERFTISRDNSKDTLYLQMNSLRAEDTALYYCARLFTKHAMDYWGQGTLVTVSS VL: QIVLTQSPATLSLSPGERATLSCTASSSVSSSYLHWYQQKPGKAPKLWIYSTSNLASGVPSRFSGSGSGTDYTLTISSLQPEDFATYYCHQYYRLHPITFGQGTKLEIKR has a documented Kd of 18 nM
